Target: Human P2Y12 receptor (Homo sapiens, UniProt Q9H244)
Construct: expressed in transfected cells; host or cells: HEK cells
Sequence (Q9H244 whole entry): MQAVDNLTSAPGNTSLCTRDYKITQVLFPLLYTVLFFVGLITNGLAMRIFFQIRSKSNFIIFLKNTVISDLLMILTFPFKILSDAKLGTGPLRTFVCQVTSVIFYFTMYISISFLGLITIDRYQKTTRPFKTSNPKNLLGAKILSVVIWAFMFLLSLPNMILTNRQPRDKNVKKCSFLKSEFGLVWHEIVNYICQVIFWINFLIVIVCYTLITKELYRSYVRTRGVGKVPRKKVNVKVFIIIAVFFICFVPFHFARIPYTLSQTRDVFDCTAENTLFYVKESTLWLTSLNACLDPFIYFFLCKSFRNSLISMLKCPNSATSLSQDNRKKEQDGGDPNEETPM
Assay: Human P2Y12 receptor cell membrane binding assay with [3H] 2-Mes-ADP
Details: 1 nM [3H] 2-Mes-ADP, membranes of HEK cells expressing P2Y12 receptor; read-out: Binding activity (IC50)
# reported log10 of IC50; entries follow
In plain terms, each number is the log10 of measured IC50 in nM.

# example entries with known answers
| COMPOUND | log10 of IC50 |
| --- | --- |
| CCCc1cc2c(N3CCn4c(nnc4C(F)(F)F)C3)nc(OCCC(=O)O)nc2s1 [Example 3-11] | 1.86 |
| CCc1cc2c(N3CCc4c(nc(C)nc4C(F)(F)F)C3)nc(OCC(O)CO)nc2s1 (centres unmarked) [Example 6-35] | 3.36 |
| CCCc1cc2c(N3CCn4c(nnc4C(F)(F)F)C3)nc(N3CCC[C@H]3C(=O)OCOC(=O)C(C)(C)C)nc2s1 [Example 1-52] | 3.01 |
| CCCc1cc2c(N3CCn4c(nnc4C(F)(F)F)C3)nc(Oc3ccc(C=O)cc3)nc2s1 [Example 3-47] | 2.57 |
| CCCc1cc2c(N3CCn4c(nnc4C(F)(F)F)C3)nc(N3CCc4cc(OC)c(OC)cc4C3)nc2s1 [Example 1-66] | 2.30 |
| CCCc1cc2c(N3CCn4c(nnc4C(F)(F)F)C3)nc(NCc3ccccc3)nc2s1 [Example 1-32] | 1.98 |
| CCCc1cc2c(N3CCn4c(nnc4C(F)(F)F)C3)nc(OCc3nc(CC(=O)O)co3)nc2s1 [Example 3-19] | 2.23 |

Shifting focus to the compound that follows.
Quick one: log10 of IC50 for CCCc1cc2c(N3CCn4c(nnc4C(F)(F)F)C3)nc(N3CCn4ccnc4C3)nc2s1 [Example 1-77] ?
1.67

###

Molecular target: Human P2Y12 receptor (Homo sapiens)
Construct: expressed in transfected cells; host or cells: HEK cells
Experiment: Human P2Y12 receptor cell membrane binding assay with [3H] 2-Mes-ADP
Conditions: 1 nM [3H] 2-Mes-ADP, membranes of HEK cells expressing P2Y12 receptor; read-out: Binding activity (IC50)
# reported IC50; entries follow
Express the result in µM but write the number alone.

| COMPOUND | NUMERIC_VALUE |
| --- | --- |
| CCCc1cc2c(N3CCn4c(nnc4C(F)(F)F)C3)nc(NCCO)nc2s1 | 0.11 |
| CCCc1cc2c(N3CCn4c(nnc4C(F)(F)F)C3)nc(C(=O)N3CCCC(C(=O)O)C3)nc2s1 (stereo not shown) | 0.63 |
| CCCc1cc2c(N3CCn4c(nnc4C(F)(F)F)C3)nc(NCCC(=O)O)nc2s1 | 0.059 |

Shifting focus to the compound that follows.
Quick one: IC50 for CCCc1cc2c(N3CCn4c(nnc4C(F)(F)F)C3)nc(C(=O)NCCC#N)nc2s1 ?
0.66

###

# reported pIC50; entries follow
Molecular target: Human P2Y12 receptor (Homo sapiens, UniProt Q9H244)
Construct: expressed in transfected cells; host or cells: HEK cells
Experiment: Human P2Y12 receptor cell membrane binding assay with [3H] 2-Mes-ADP
Conditions: 1 nM [3H] 2-Mes-ADP, membranes of HEK cells expressing P2Y12 receptor; read-out: Binding activity (IC50)
For clarity, pIC50 is expressed as the negative log10 of concentration in mol/L.

# example entries with known answers
| COMPOUND | pIC50 |
| --- | --- |
| CCCc1cc2c(N3CCn4c(nnc4C(F)(F)F)C3)nc(Oc3ccc(OCC(=O)O)cc3)nc2s1 | 6.74 |
| CCCc1cc2c(N3CCn4c(nnc4C(F)(F)F)C3)nc(-c3nnc(CO)o3)nc2s1 | 6.60 |
| CCCc1cc2c(N3CCn4c(nnc4C(F)(F)F)C3)nc(CN3CC[C@@H](O)C3)nc2s1 | 5.95 |
| CCCc1cc2c(N3CCn4c(nnc4C(F)(F)F)C3)nc(N3CCC(N(C)C)C3)nc2s1 (centres unmarked) | 6.85 |

Shifting focus to the compound that follows.
Which pIC50 is reported with Human P2Y12 receptor (Homo sapiens, UniProt Q9H244) for this entry: CCc1cc2c(N3CCn4cc(C(F)(F)F)nc4C3)nc(N3CCNC(=O)C3)nc2s1 ?
5.00

###

Biological target: Human P2Y12 receptor (Homo sapiens, UniProt Q9H244)
Construct: expressed in transfected cells; host or cells: HEK cells
Assay: Human P2Y12 receptor cell membrane binding assay with [3H] 2-Mes-ADP
Details: 1 nM [3H] 2-Mes-ADP, membranes of HEK cells expressing P2Y12 receptor; read-out: Binding activity (IC50)
# reported IC50; entries follow
Express the result in nM but write the number alone.

# example entries with known answers
| COMPOUND_STRUCTURE_STRING | IC50 [nM] |
| --- | --- |
| CC(C)c1cc2c(N3CCn4c(nnc4C(F)(F)F)C3)nc(N3CCN(C)CC3)nc2s1 | 1100 |
| CCCc1cc2c(N3CCn4c(nnc4C(F)(F)F)C3)nc(N3CCN(S(=O)(=O)CC)CC3)nc2s1 | 56 |
| CCCc1cc2c(N3CCn4c(nnc4C(F)(F)F)C3)nc(-c3nnc(N)o3)nc2s1 | 100 |

Quick one: IC50 for CCCc1cc2c(N3CCn4c(nnc4C(F)(F)F)C3)nc(N3CCN(CCO)CC3)nc2s1 ?
96

Quick one: IC50 for CCCc1cc2c(N3CCn4c(nnc4C(F)(F)F)C3)nc(Oc3ccc(C(=O)O)cc3)nc2s1 ?
99

Quick one: IC50 for CCCc1cc2c(N3CCn4c(nnc4C(F)(F)F)C3)nc(COC(=O)c3ccccc3)nc2s1 ?
850

Quick one: IC50 for CCCc1cc2c(N3CCn4c(nnc4C(F)(F)F)C3)nc(C(=O)NCc3ccccc3)nc2s1 ?
210

Quick one: IC50 for CCCc1cc2c(N3CCn4c(nnc4C(F)(F)F)C3)nc(OCC(=O)OC)nc2s1 ?
331

Quick one: IC50 for CCCc1cc2c(N3CCn4c(nnc4C(F)(F)F)C3)nc(CC(N)=O)nc2s1 ?
174

Quick one: IC50 for CCCc1cc2c(N3CCn4c(nnc4C(F)(F)F)C3)nc(Oc3ccc(CO)cc3)nc2s1 ?
340

Quick one: IC50 for CCCc1cc2c(N3CCn4c(nnc4C(F)(F)F)C3)nc(N3CC[C@H](O)C3)nc2s1 ?
36

###

Target: Human P2Y12 receptor (Homo sapiens, UniProt Q9H244)
Construct: expressed in transfected cells; host or cells: HEK cells
Assay: Human P2Y12 receptor cell membrane binding assay with [3H] 2-Mes-ADP
Conditions: 1 nM [3H] 2-Mes-ADP, membranes of HEK cells expressing P2Y12 receptor; read-out: Binding activity (IC50)
pIC50: −log10 of the molar value.
Decision: pIC50 >= 7 yields label 1, all other cases yield label 0.

| MOLECULE | ASSIGNED_CLASS |
| --- | --- |
| CCCc1cc2c(N3CCn4c(nnc4C(F)(F)F)C3)nc(N3CC[C@H](C(=O)O)C3)nc2s1 | label 1 |
| CCCc1cc2c(N3CCn4c(nnc4C(F)(F)F)C3)nc(N[C@@H]3C[C@H](OCCO)[C@@H](O)[C@H]3O)nc2s1 | label 0 |
| CCCc1cc2c(N3CCn4c(C)nnc4C3)nc(OCC(CO)CO)nc2s1 | label 0 |

Does pIC50 meet or surpass 7 for CCc1cc2c(N3CCn4c(nnc4C(F)(F)F)C3)nc(NCC(O)CO)nc2s1 (stereo not shown) ?
label 0

Does pIC50 meet or surpass 7 for CCCc1cc2c(N3CCn4c(nnc4C(F)(F)F)C3)nc(Oc3ccc(CC(=O)OC)cc3)nc2s1 ?
label 0

Does pIC50 meet or surpass 7 for CCCc1cc2c(N3CCn4c(nnc4C(F)(F)F)C3)nc(Oc3cccc(C(=O)OC)c3)nc2s1 ?
label 0

Reference for the values: patent US20110166121A1
